# Target Under Test: Factor X (FX), P00742
# Sequence (P00742 whole entry, looked up): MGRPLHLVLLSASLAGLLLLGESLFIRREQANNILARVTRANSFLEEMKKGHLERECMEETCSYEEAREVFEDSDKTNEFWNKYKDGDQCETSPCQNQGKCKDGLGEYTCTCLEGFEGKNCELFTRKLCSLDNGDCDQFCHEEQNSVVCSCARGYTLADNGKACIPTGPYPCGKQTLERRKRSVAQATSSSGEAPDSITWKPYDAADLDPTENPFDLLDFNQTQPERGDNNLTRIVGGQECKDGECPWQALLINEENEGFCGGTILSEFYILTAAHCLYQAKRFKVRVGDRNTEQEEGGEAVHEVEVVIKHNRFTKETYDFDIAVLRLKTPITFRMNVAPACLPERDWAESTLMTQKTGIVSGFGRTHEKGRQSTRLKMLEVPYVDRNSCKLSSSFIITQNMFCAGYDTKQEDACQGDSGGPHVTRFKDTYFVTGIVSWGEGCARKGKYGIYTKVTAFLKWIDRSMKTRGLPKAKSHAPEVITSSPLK
Reported Endpoint: kcat/KM (M^-1s^-1), FX activation by FIXa in the Xase complex (M⁻¹ s⁻¹)
State the answer as a number, implicitly in M⁻¹ s⁻¹.

Enquiry: Field request: kcat/KM (M^-1s^-1), FX activation by FIXa in the Xase complex | item: FIXa-D104N/K106S/R318Y/R338E/R403E/E410N (protein) chain 1: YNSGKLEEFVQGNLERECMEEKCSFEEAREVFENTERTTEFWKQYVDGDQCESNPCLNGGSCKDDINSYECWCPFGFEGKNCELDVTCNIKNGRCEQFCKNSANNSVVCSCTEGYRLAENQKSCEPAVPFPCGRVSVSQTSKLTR chain 2: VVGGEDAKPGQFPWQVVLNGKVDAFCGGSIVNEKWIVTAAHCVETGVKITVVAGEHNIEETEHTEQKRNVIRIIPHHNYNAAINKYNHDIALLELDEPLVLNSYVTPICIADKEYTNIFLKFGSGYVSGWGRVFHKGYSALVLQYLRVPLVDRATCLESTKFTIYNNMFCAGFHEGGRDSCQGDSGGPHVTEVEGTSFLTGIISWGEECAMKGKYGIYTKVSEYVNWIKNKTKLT
Return: 1.7e+08
